# tgt: HA H5 A/Vietnam/1203/04 (Influenza A virus (A/Vietnam/1203/2004(H5N1)))
# method: biochemical
# run parameters: Competition binding (AlphaLISA), pIC50 H5 A/Vietnam/1203/04
measurement name: pIC50
FYI, pIC50 means -log10 of a concentration in mol per litre.

Examples with answers:
COc1ccc2nc(-c3cccc(C(=O)N4CCN(C(C(C)=O)c5ccccc5)CC4)c3)sc2c1 (centres unmarked) [Example 90] ... 6.00
COc1ccc2nc(-c3cccc(C(=O)N4CCN(C(c5ccccc5)c5nnc(C)o5)CC4)c3)sc2c1 (centres unmarked) ... 6.00

Q) Identify measured pIC50 associated with COC(=O)C(c1ccccc1)N1CCN(C(=O)c2cccc(-c3ncc(C(=O)N4CCOCC4)s3)c2)CC1 (centres unmarked)
A) 5.90

Q) Identify measured pIC50 associated with COC(=O)C(c1ccccc1)N1CCN(C(=O)c2cccc(-c3nc4ccccc4o3)c2)CC1 (centres unmarked)
A) 5.90

Q) Identify measured pIC50 associated with COC(=O)[C@H](c1ccccc1)N1CCN(C(=O)c2cccc(-c3nc4cc(C(F)(F)F)ccc4o3)c2)[C@H](C(N)=O)C1
A) 6.10
